# System: MS2 coat protein
# protocol: apparent KD of MS2 coat protein; higher = weaker reporter binding
# setup conditions: Eterna round: R107; input ligand: theophylline 20 uM
apparent KD of MS2 coat protein values, listed per item
Please reply with the bare figure in nM and do not write the unit itself.

Please review the entries below; each comes with its answer.
sequence code: AACAUGAGGAUCACCCAUGUAAUAUGGGAUACCAGAGACGAAAGUCUCCCUUGGCAGCCCAAGCUGCUCCAUACGAAAGUAUGGU [Theophylline A 16]
units label: nM
apparent KD of MS2 coat protein: 43.7
//
sequence code: CCAUGCGUAGGAAGGAGCGCAUACUUCACAUGAGGAUCACCCAUGUCGAGACGUGAGUCAGUGCAGGUAGGUCGCCUACGCAUGG [Same State - Arginine B (Freestyle 27)]
units label: nM
apparent KD of MS2 coat protein: 24.3

Please look at the following sequence next.
The value of apparent KD of MS2 coat protein measured for the sequence UACUGUCUAACGGCCGCCACUCAGUCUCGGUUGAUUAUCUUAAGUGACAUGAGGAUCACCCAUGUGAGGACCGGGUUGUGCAUAA [theeternabot_exclusion_MS2_Trp_B_40] turned out to be 91.3
